system: wild type HIV-1 virus (NL 4.3 strains); assay: Antiviral activity assay on Hela P4 cells (beta-galactosidase, CPRG); type: cell-based; conditions: Human immunodeficiency virus 1, HeLaP4, 48 h, read-out: P4 IC50
Answer each item with its documented IC50.

CC(=O)c1ccc(O)c2nc(/C=C/c3cc(O)c(O)c(Cl)c3)ccc12: 1000 nM

Looking for the measured IC50 of `CC(=O)c1ccc(O)c2nc(/C=C/c3ccc(O)c(C(=O)O)c3)ccc12` , can you help? 1000 nM

====

Task for the reader: assign each of the following compounds its reported IC50.
target: HBX2 HIV integrase (Human immunodeficiency virus type 1 group M subtype B, UniProt P04585); construct: contains the cDNA encoding the HBX2 HIV integrase; His tag (N, cleaved yes); made in house; host or cells: Escherichia coli BL21 (DE3); test: 3' LTR processing assay; assay type: biochemical
Answers are plain numbers, in nM.

Working through the 4 compounds below one at a time, give IC50 for each.
1. CC(=O)c1ccc(O)c2nc(/C=C/c3cc(O)c(O)cc3O)ccc12 [SQE74]
2. COc1cc(/C=C/c2ccc3ccc(C(=O)O)c(O)c3n2)cc(O)c1O [FZ41, reference compound]
3. CC(=O)c1ccc(O)c2nc(/C=C/c3ccc(O)c(C(=O)O)c3)ccc12 [SQE89]
4. CC(=O)c1ccc(O)c2nc(/C=C/c3cc(O)c(O)c(Cl)c3)ccc12 [SQE86]

[225, 700, 560, 530]

Data origin, for the record: patent US20110224242A1
